tested on: SF268; assay: HSA synergy score (Combenefit); higher = more synergy; conditions: exposure time: 72 h
PROPERTY_MEASURED: HSA synergy score

• CC(=O)O[C@@]12CO[C@@H]1C[C@H](O)[C@@]1(C)C(=O)[C@H](O)C3=C(C)[C@@H](OC(=O)[C@H](O)[C@@H](NC(=O)OC(C)(C)C)c4ccccc4)C[C@@](O)([C@@H](OC(=O)c4ccccc4)[C@H]21)C3(C)C [Docetaxel] + N#CC(c1ccnc(NCCc2cccnc2)n1)c1nc2ccccc2s1 [AS601245] = 4.46
• Nc1ccn([C@@H]2O[C@H](CO)[C@@H](O)C2(F)F)c(=O)n1 [Gemcitabine] + Cc1cc([C@@H](C)Nc2ccccc2C(=O)O)c2nc(N3CCOCC3)cc(=O)n2c1 [AZD6482] = 7.02
• CCCCCCCCCCCC1=C(O)C(=O)C=C(O)C1=O [Embelin] + O=c1[nH]c2ccccc2n1C1CCN(Cc2ccc(-c3[nH]c4cc5ncnc5cc4nc3-c3ccccc3)cc2)CC1 [Akt inhibitor VIII] = 6.9
• CC(=O)O[C@@]12CO[C@@H]1C[C@H](O)[C@@]1(C)C(=O)[C@H](O)C3=C(C)[C@@H](OC(=O)[C@H](O)[C@@H](NC(=O)OC(C)(C)C)c4ccccc4)C[C@@](O)([C@@H](OC(=O)c4ccccc4)[C@H]21)C3(C)C [Docetaxel] + C#Cc1cccc(Nc2ncnc3cc(OCCOC)c(OCCOC)cc23)c1 [Erlotinib] = 9.27

----------
Entries annotated with measured Bliss synergy score
system: U118; assay: Bliss synergy score (Combenefit); higher = more synergy; extreme values may be limits of the assay; details: exposure time: 72 h
PROPERTY_MEASURED: Bliss synergy score

• C=CCc1cccc(/C=N/NC(=O)CN2CCN(Cc3ccccc3)CC2)c1O [PAC-1] + Cc1cc([C@@H](C)Nc2ccccc2C(=O)O)c2nc(N3CCOCC3)cc(=O)n2c1 [AZD6482] = 0.918
• Cc1cc([C@@H](C)Nc2ccccc2C(=O)O)c2nc(N3CCOCC3)cc(=O)n2c1 [AZD6482] + CCOc1nc(NC(=O)Cc2cc(OC)ccc2OC)cc(N)c1C#N = 2.95
• CCC(=O)N1CCN(c2ccc(-n3c(=O)ccc4cnc5ccc(-c6cnc7ccccc7c6)cc5c43)cc2C(F)(F)F)CC1 [Torin1] + N#CC(c1ccnc(NCCc2cccnc2)n1)c1nc2ccccc2s1 [AS601245] = 0
• CO[C@H]1C[C@@H]2CC[C@@H](C)[C@@](O)(O2)C(=O)C(=O)N2CCCC[C@H]2C(=O)O[C@H]([C@H](C)C[C@@H]2CC[C@@H](O)[C@H](OC)C2)CC(=O)[C@H](C)/C=C(\C)[C@@H](O)[C@@H](OC)C(=O)[C@H](C)C[C@H](C)/C=C/C=C/C=C/1C [Rapamycin] + C=CCc1cccc(/C=N/NC(=O)CN2CCN(Cc3ccccc3)CC2)c1O [PAC-1] = 0
• Nc1ccn([C@@H]2O[C@H](CO)[C@@H](O)C2(F)F)c(=O)n1 [Gemcitabine] + CO[C@H]1C[C@@H]2CC[C@@H](C)[C@@](O)(O2)C(=O)C(=O)N2CCCC[C@H]2C(=O)O[C@H]([C@H](C)C[C@@H]2CC[C@@H](O)[C@H](OC)C2)CC(=O)[C@H](C)/C=C(\C)[C@@H](O)[C@@H](OC)C(=O)[C@H](C)C[C@H](C)/C=C/C=C/C=C/1C [Rapamycin] = 2.62
• O=c1[nH]c2ccccc2n1C1CCN(Cc2ccc(-c3[nH]c4cc5ncnc5cc4nc3-c3ccccc3)cc2)CC1 [Akt inhibitor VIII] + N#CC(c1ccnc(NCCc2cccnc2)n1)c1nc2ccccc2s1 = 5.46
• Nc1ccn([C@@H]2O[C@H](CO)[C@@H](O)C2(F)F)c(=O)n1 [Gemcitabine] + CCOc1nc(NC(=O)Cc2cc(OC)ccc2OC)cc(N)c1C#N [JNK inhibitor VIII] = 0
• CO[C@H]1C[C@@H]2CC[C@@H](C)[C@@](O)(O2)C(=O)C(=O)N2CCCC[C@H]2C(=O)O[C@H]([C@H](C)C[C@@H]2CC[C@@H](O)[C@H](OC)C2)CC(=O)[C@H](C)/C=C(\C)[C@@H](O)[C@@H](OC)C(=O)[C@H](C)C[C@H](C)/C=C/C=C/C=C/1C [Rapamycin] + C[C@@H](Oc1cc(-c2cnn(C3CCNCC3)c2)cnc1N)c1c(Cl)ccc(F)c1Cl [Crizotinib] = 0

----------
tested on: SF539; experiment: HSA synergy score (Combenefit); higher = more synergy; details: exposure time: 72 h
PROPERTY_MEASURED: HSA synergy score

• C[C@@H](Oc1cc(-c2cnn(C3CCNCC3)c2)cnc1N)c1c(Cl)ccc(F)c1Cl [Crizotinib] + Cc1cc([C@@H](C)Nc2ccccc2C(=O)O)c2nc(N3CCOCC3)cc(=O)n2c1 [AZD6482] = 10.7
• CO[C@H]1C[C@@H]2CC[C@@H](C)[C@@](O)(O2)C(=O)C(=O)N2CCCC[C@H]2C(=O)O[C@H]([C@H](C)C[C@@H]2CC[C@@H](O)[C@H](OC)C2)CC(=O)[C@H](C)/C=C(\C)[C@@H](O)[C@@H](OC)C(=O)[C@H](C)C[C@H](C)/C=C/C=C/C=C/1C [Rapamycin] + Cc1cc([C@@H](C)Nc2ccccc2C(=O)O)c2nc(N3CCOCC3)cc(=O)n2c1 [AZD6482] = 6.85
• CC(=O)O[C@@]12CO[C@@H]1C[C@H](O)[C@@]1(C)C(=O)[C@H](O)C3=C(C)[C@@H](OC(=O)[C@H](O)[C@@H](NC(=O)OC(C)(C)C)c4ccccc4)C[C@@](O)([C@@H](OC(=O)c4ccccc4)[C@H]21)C3(C)C [Docetaxel] + N#CC(c1ccnc(NCCc2cccnc2)n1)c1nc2ccccc2s1 [AS601245] = 7.49
• CO[C@H]1C[C@@H]2CC[C@@H](C)[C@@](O)(O2)C(=O)C(=O)N2CCCC[C@H]2C(=O)O[C@H]([C@H](C)C[C@@H]2CC[C@@H](O)[C@H](OC)C2)CC(=O)[C@H](C)/C=C(\C)[C@@H](O)[C@@H](OC)C(=O)[C@H](C)C[C@H](C)/C=C/C=C/C=C/1C [Rapamycin] + C[C@@H](Oc1cc(-c2cnn(C3CCNCC3)c2)cnc1N)c1c(Cl)ccc(F)c1Cl [Crizotinib] = 3.78
• CCC(=O)N1CCN(c2ccc(-n3c(=O)ccc4cnc5ccc(-c6cnc7ccccc7c6)cc5c43)cc2C(F)(F)F)CC1 [Torin1] + CCCCCCCCCCCC1=C(O)C(=O)C=C(O)C1=O [Embelin] = 2.69
• C#Cc1cccc(Nc2ncnc3cc(OCCOC)c(OCCOC)cc23)c1 [Erlotinib] + O=c1[nH]c2ccccc2n1C1CCN(Cc2ccc(-c3[nH]c4cc5ncnc5cc4nc3-c3ccccc3)cc2)CC1 [Akt inhibitor VIII] = 9.63
• C[C@@H](Oc1cc(-c2cnn(C3CCNCC3)c2)cnc1N)c1c(Cl)ccc(F)c1Cl [Crizotinib] + C=CCc1cccc(/C=N/NC(=O)CN2CCN(Cc3ccccc3)CC2)c1O [PAC-1] = 3.88

----------
// values below are reported Chou-Talalay combination index
test system: AM38; test: Chou-Talalay combination index (dimensionless); higher = less synergy (more antagonism); conditions: exposure time: 72 h
PROPERTY_MEASURED: Chou-Talalay combination index

* O=c1[nH]c2ccccc2n1C1CCN(Cc2ccc(-c3[nH]c4cc5ncnc5cc4nc3-c3ccccc3)cc2)CC1 [Akt inhibitor VIII] + N#CC(c1ccnc(NCCc2cccnc2)n1)c1nc2ccccc2s1 | 0.584
* Nc1ccn([C@@H]2O[C@H](CO)[C@@H](O)C2(F)F)c(=O)n1 [Gemcitabine] + Cc1cc([C@@H](C)Nc2ccccc2C(=O)O)c2nc(N3CCOCC3)cc(=O)n2c1 [AZD6482] | 0.967
* CCC(=O)N1CCN(c2ccc(-n3c(=O)ccc4cnc5ccc(-c6cnc7ccccc7c6)cc5c43)cc2C(F)(F)F)CC1 [Torin1] + C#Cc1cccc(Nc2ncnc3cc(OCCOC)c(OCCOC)cc23)c1 [Erlotinib] | 0.754
* CCC(=O)N1CCN(c2ccc(-n3c(=O)ccc4cnc5ccc(-c6cnc7ccccc7c6)cc5c43)cc2C(F)(F)F)CC1 [Torin1] + CCCCCCCCCCCC1=C(O)C(=O)C=C(O)C1=O [Embelin] | 0.856
* CCCCCCCCCCCC1=C(O)C(=O)C=C(O)C1=O [Embelin] + N#CC(c1ccnc(NCCc2cccnc2)n1)c1nc2ccccc2s1 [AS601245] | 0.867
* CO[C@H]1C[C@@H]2CC[C@@H](C)[C@@](O)(O2)C(=O)C(=O)N2CCCC[C@H]2C(=O)O[C@H]([C@H](C)C[C@@H]2CC[C@@H](O)[C@H](OC)C2)CC(=O)[C@H](C)/C=C(\C)[C@@H](O)[C@@H](OC)C(=O)[C@H](C)C[C@H](C)/C=C/C=C/C=C/1C [Rapamycin] + CCOc1nc(NC(=O)Cc2cc(OC)ccc2OC)cc(N)c1C#N [JNK inhibitor VIII] | 0.906
* Nc1ccn([C@@H]2O[C@H](CO)[C@@H](O)C2(F)F)c(=O)n1 [Gemcitabine] + C[C@@H](Oc1cc(-c2cnn(C3CCNCC3)c2)cnc1N)c1c(Cl)ccc(F)c1Cl [Crizotinib] | 0.719
* C=CCc1cccc(/C=N/NC(=O)CN2CCN(Cc3ccccc3)CC2)c1O [PAC-1] + Cc1cc([C@@H](C)Nc2ccccc2C(=O)O)c2nc(N3CCOCC3)cc(=O)n2c1 [AZD6482] | 0.845
* C[C@@H](Oc1cc(-c2cnn(C3CCNCC3)c2)cnc1N)c1c(Cl)ccc(F)c1Cl [Crizotinib] + C=CCc1cccc(/C=N/NC(=O)CN2CCN(Cc3ccccc3)CC2)c1O [PAC-1] | 0.937
